Origin of the recorded values: ChEMBL document CHEMBL2439990

target: Transient receptor potential cation channel subfamily M member 8 (Homo sapiens, UniProt Q7Z2W7); assay: Inhibition of human TRPM8 (unknown origin) expressed in HEK293 cells assessed as inhibition of WS12-induced Ca2+ elevation by FLIPR assay; type: cell-based
Sequence (Q7Z2W7 whole entry, looked up): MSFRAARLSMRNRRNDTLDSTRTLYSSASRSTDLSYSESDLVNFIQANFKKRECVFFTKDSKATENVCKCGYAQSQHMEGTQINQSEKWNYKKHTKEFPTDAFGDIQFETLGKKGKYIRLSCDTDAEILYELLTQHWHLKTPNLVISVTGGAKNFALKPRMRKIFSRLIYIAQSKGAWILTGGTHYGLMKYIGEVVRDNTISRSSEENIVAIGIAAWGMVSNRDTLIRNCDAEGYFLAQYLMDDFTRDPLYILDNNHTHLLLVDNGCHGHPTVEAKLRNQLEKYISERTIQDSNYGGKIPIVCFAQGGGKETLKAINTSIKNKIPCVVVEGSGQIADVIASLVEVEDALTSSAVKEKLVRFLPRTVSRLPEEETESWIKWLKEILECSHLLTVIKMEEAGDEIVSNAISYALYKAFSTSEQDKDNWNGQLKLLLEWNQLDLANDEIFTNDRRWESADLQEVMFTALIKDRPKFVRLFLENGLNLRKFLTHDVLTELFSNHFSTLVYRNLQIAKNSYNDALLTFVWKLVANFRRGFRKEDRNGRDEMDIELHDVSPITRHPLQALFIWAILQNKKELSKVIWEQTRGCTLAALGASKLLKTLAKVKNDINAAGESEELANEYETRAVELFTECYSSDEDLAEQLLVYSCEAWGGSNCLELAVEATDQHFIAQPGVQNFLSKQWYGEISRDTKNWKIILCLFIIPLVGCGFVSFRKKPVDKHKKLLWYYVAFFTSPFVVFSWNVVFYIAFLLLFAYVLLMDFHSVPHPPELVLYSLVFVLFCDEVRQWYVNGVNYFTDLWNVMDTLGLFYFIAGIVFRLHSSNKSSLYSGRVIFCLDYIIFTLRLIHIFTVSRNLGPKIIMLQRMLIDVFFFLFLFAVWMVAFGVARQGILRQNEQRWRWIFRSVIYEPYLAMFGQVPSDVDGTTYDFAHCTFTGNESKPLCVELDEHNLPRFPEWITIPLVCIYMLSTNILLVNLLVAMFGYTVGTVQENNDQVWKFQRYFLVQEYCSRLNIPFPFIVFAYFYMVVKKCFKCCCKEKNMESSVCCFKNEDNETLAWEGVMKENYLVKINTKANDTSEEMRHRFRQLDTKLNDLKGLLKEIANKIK
Endpoint Name: Kb

| Molecule | Endpoint Name | Result |
| --- | --- | --- |
| CCN(C(=O)c1ccccc1OCc1ccccc1)C1CCNCC1 | Kb | > 5 µM |

# lookup: Kb of CCN(C(=O)c1cccnc1OCc1ccccc1)[C@@H]1CCC[C@H](N)C1 (racemic)
> 2 µM

# lookup: Kb of CCN(C(=O)c1ccccc1OCc1ccccc1)C1CCNC1 (stereo not drawn)
> 5 µM
